# run description: Inhibition of PAFR in New Zealand rabbit platelets assessed as reduction in PAF-induced platelet aggregation measured within 5 mins by aggregometry analysis
# Type: tissue-based
# setup conditions: Oryctolagus cuniculus
parameter: IC50
Field: value (include unit after the number)

Report IC50 for Cc1ccccc1Cn1cc(CO[C@H]2C(=O)O[C@H]3O[C@]45C(=O)O[C@@H]6[C@H](O)[C@@H](C(C)(C)C)[C@@]32[C@@]64[C@@H](O)[C@@H]2OC(=O)[C@@H](C)[C@@]25O)nn1 please.
38 nM

Report IC50 for Cc1ccccc1Cn1cc(CO[C@H]2C(=O)O[C@H]3O[C@]45C(=O)O[C@@H]6C[C@@H](C(C)(C)C)[C@@]32[C@@]64C[C@@H]2OC(=O)[C@@H](C)[C@@]25O)nn1 please.
71 nM

Report IC50 for C[C@@H]1C(=O)O[C@H]2[C@H](O)[C@]34[C@@H]5OC(=O)[C@]3(O[C@@H]3OC(=O)[C@H](O)[C@@]34[C@H](C(C)(C)C)[C@H]5O)[C@@]12O please.
7500 nM

Report IC50 for Cc1ccccc1Cn1cc(CO[C@H]2C(=O)O[C@H]3O[C@]45C(=O)O[C@@H]6C[C@@H](C(C)(C)C)[C@@]32[C@@]64[C@@H](O)[C@@H]2OC(=O)[C@@H](C)[C@@]25O)nn1 please.
5.7 nM

Report IC50 for C[C@@H]1C(=O)O[C@H]2[C@H](O)[C@@]34[C@H]5C[C@@H](C(C)(C)C)[C@]36[C@@H](OC(=O)[C@@H]6O)O[C@@]4(C(=O)O5)[C@@]12O [GINKOLIDE B] please.
130 nM

Report IC50 for C[C@@H]1C(=O)O[C@H]2C[C@@]34[C@H]5C[C@@H](C(C)(C)C)[C@]36[C@@H](OC(=O)[C@@H]6O)O[C@@]4(C(=O)O5)[C@]21O [GINKGOLIDE A] please.
580 nM

* * *

# Test system: SK-OV-3
# run description: Cytotoxicity against human SK-OV-3 cells by SRB staining assay
# Assay type: functional, cell-based
Record form. Attribute: pIC50. Fill in for each entry.
In simple prose, pIC50 is minus the logarithm base ten of a concentration in moles per litre.

Report pIC50 for CC(=O)OC1C(=O)[C@@H]2[C@@]34COC(O)[C@@](C)([C@H](OC(C)=O)C[C@@H]3O)[C@@H]4C[C@@H](O)[C@@]2(C)[C@@]23O[C@@H]2C[C@@H](c2ccoc2)[C@]13C (stereo partly drawn) please.
7.46

Report pIC50 for CC(=O)O[C@@H]1C[C@H](O)[C@@]23COC(O)[C@]1(C)[C@@H]2C[C@@H](O)[C@@]1(C)[C@@H]2C(=O)C[C@@H](c4ccoc4)[C@]2(C)[C@@H](O)C(=O)[C@@H]13 (stereo partly drawn) please.
4.59

Report pIC50 for CC(=O)O[C@@H]1C[C@H](O)[C@@]23COC(O)[C@]1(C)[C@@H]2C[C@@H](O)[C@]1(C)[C@@H]3C(=O)C(O)[C@@]2(C)[C@H](c3ccoc3)C[C@H]3O[C@@]312 (stereo partly drawn) please.
6.33

* * *

# Test system: PANC-1
# run description: Cytotoxicity against human Panc-1 cells incubated for 72 hrs by alamar blue assay
# Assay type: functional, cell-based
# setup conditions: PANC-1, 72 h
pIC50: −log10 of the molar value.
parameter: pIC50

Report pIC50 for CC(C)[C@]12O[C@H]1[C@@H]1O[C@@]13[C@@]1(C)CCC4=C(COC4=O)[C@@H]1C[C@@H]1O[C@@]13C2=O [TRIPTONIDE] please.
> 7.70

* * *

# Tested on: HepG2
# run description: Cytotoxicity against human HepG2 cells incubated for 48 hrs by alamarblue reagent based assay
# Assay type: functional, cell-based
# setup conditions: HepG2, 48 h
Record form. Attribute: IC50. Fill in for each entry.
# number only, unit µM dropped from output

Report IC50 for C/C1=C\CC[C@@]2(C)O[C@H]2[C@H]2OC(=O)C(CNc3ccn(C4OC(CO)[C@H](O)[C@@H]4O)c(=O)n3)[C@@H]2CC1 (stereo partly drawn) please.
0.24

Report IC50 for C=C1C(=O)O[C@@H]2C3O[C@]3(C)CC/C=C(\C)CC[C@@H]12 (stereo partly drawn) please.
17

Report IC50 for C/C1=C\CC[C@@]2(C)O[C@H]2[C@H]2OC(=O)C(CNC(Cc3ccc(N(CCCl)CCCl)cc3)C(=O)O)[C@@H]2CC1 (stereo partly drawn) please.
0.26

* * *

# System: HepG2
# run description: Cytotoxicity against human HepG2 cells incubated for 48 hrs by MTT assay
# Type: functional, cell-based
# setup conditions: HepG2, 48 h
Record form. Attribute: pIC50. Fill in for each entry.
In simple prose, pIC50 is minus the logarithm base ten of a concentration in moles per litre.

Report pIC50 for CC(C)[C@H]1OC(=O)C=C2C1=C[C@H]1OC(=O)[C@@]3(C)CCC[C@@]2(C)[C@@H]13 [NAGILACTONE F] please.
5.89

Report pIC50 for C=C[C@H]1OC(=O)C=C2[C@]3(C)[C@H]4[C@H](OC(=O)[C@@]4(C)[C@@H](O)[C@H]4O[C@H]43)[C@H]3O[C@@]231 please.
5.46

Report pIC50 for CC(C)c1oc(=O)cc2c1[C@@H](O)[C@H]1OC(=O)[C@@]3(C)[C@@H](O)[C@H]4O[C@H]4[C@@]2(C)[C@@H]13 [NAGILACTONE C] please.
4.85

Report pIC50 for C[C@@H](O)[C@H]1OC(=O)C=C2[C@]3(C)[C@H]4[C@H](OC(=O)[C@@]4(C)[C@@H](O)[C@H]4O[C@H]43)[C@H]3O[C@@]231 please.
4.96

Report pIC50 for CC(C)[C@H]1OC(=O)C=C2[C@@]13O[C@@H]3[C@H]1OC(=O)[C@@]3(C)C[C@@H](O)C[C@@]2(C)[C@@H]13 please.
5.51

Report pIC50 for CC(C)[C@H]1OC(=O)C=C2C1=C[C@H]1OC(=O)[C@@]3(C)C[C@@H](O)C[C@@]2(C)[C@@H]13 please.
5.43

* * *

# Tested on: MDA-MB-231
# run description: Cytotoxicity against human MDA-MB-231 cells incubated for 72 hrs by MTT assay
# Format: functional, cell-based
# setup conditions: MDA-MB-231, 72 h
parameter: IC50 (nM)
# number only, unit nM dropped from output

Report IC50 for COC(=O)[C@@]12OC[C@]34[C@H]([C@@H](O)[C@@H]1O)[C@@]1(C)CC(=O)C(O)=C(C)[C@@H]1C[C@H]3OC(=O)[C@H](OC(=O)C=C(C)C)[C@@H]24 please.
81

Report IC50 for COC(=O)[C@@]12OC[C@]34[C@H]([C@@H](O)[C@@H]1O)[C@@]1(C)CC(=O)C(O)=C(C)[C@@H]1C[C@H]3OC(=O)[C@H](OC(=O)/C=C(\C)C(C)(C)OC(C)=O)[C@@H]24 please.
88

Report IC50 for COC(=O)[C@@]12OC[C@]34[C@H]([C@@H](O)[C@@H]1O)[C@@]1(C)CC(=O)C(O)=C(C)[C@@H]1C[C@H]3OC(=O)[C@H](OC(=O)CC(C)C)[C@@H]24 please.
230

Report IC50 for CC1=CC(=O)[C@@H](O)[C@]2(C)[C@H]3[C@@H](O)[C@H](O)[C@@]4(C)OC[C@@]35[C@@H](C[C@@H]12)OC(=O)[C@H](O)[C@]54O please.
24000

* * *

# Test system: AGS
# run description: Cytotoxicity against human AGS cells incubated for 48 hrs by MTT assay
# Assay type: functional, cell-based
parameter: pIC50
In simple prose, pIC50 is minus the logarithm base ten of a concentration in moles per litre.

Report pIC50 for CC(C)[C@H]1OC(=O)C=C2[C@@]13O[C@@H]3[C@H]1OC(=O)[C@@]3(C)C[C@@H](O)C[C@@]2(C)[C@@H]13 please.
5.85

Report pIC50 for CC(C)c1oc(=O)cc2c1[C@@H](O)[C@H]1OC(=O)[C@@]3(C)[C@@H](O)[C@H]4O[C@H]4[C@@]2(C)[C@@H]13 please.
5.64

Report pIC50 for CC(C)[C@H]1OC(=O)C=C2C1=C[C@H]1OC(=O)[C@@]3(C)CCC[C@@]2(C)[C@@H]13 please.
6.30

Report pIC50 for CC(C)[C@H]1OC(=O)C=C2C1=C[C@H]1OC(=O)[C@@]3(C)C[C@@H](O)C[C@@]2(C)[C@@H]13 please.
6.43

Report pIC50 for C=C[C@H]1OC(=O)C=C2[C@]3(C)[C@H]4[C@H](OC(=O)[C@@]4(C)[C@@H](O)[C@H]4O[C@H]43)[C@H]3O[C@@]231 please.
6.26

Report pIC50 for C[C@@H](O)[C@H]1OC(=O)C=C2[C@]3(C)[C@H]4[C@H](OC(=O)[C@@]4(C)[C@@H](O)[C@H]4O[C@H]43)[C@H]3O[C@@]231 please.
5.89

Source of measurements: ChEMBL document CHEMBL4706632
